Assay: protein stability index of a GFP-peptide fusion (GPS, HEK-293T) (PSI 1-6); higher = more stable;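 further: 24-mer peptide tiles fused after GFP, lentivirally expressed, FACS-sorted into six equal bins by GFP/DsRed ratio, decoded by Illumina sequencing, PSI is the read-weighted mean bin number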
Settings: treatment: MLN4924 1 uM, 8 h; c terminus: a fixed tail appended
Measured protein stability index, listed per entry.
measured quantity: protein stability index

chain_sequence="PQKTYSVKVLAFTSIGDGPLSSDI [PTPRD]" measured_quantity="protein stability index" experimental_result=1.89
chain_sequence="ALLTGGGSENRNHRLLNMARNNND [RNF180]" measured_quantity="protein stability index" experimental_result=3.76
chain_sequence="TCEDDEDEELGGSSRVPVGGGPEA [ZBTB22]" measured_quantity="protein stability index" experimental_result=5.38
chain_sequence="KREREVDEDSEPEREVRAKNGRVD [USP39]" measured_quantity="protein stability index" experimental_result=5.69
chain_sequence="YSFRKLPDTQLLKFQLNKYTGEIK [PCDHGA10]" measured_quantity="protein stability index" experimental_result=2.54
chain_sequence="CKACITRWWEDLERDFPCPVCRKT [TRIM39]" measured_quantity="protein stability index" experimental_result=4.25
chain_sequence="QGHPQTGCECEDGPDGQEMDPPNP [GAGE1]" measured_quantity="protein stability index" experimental_result=5.67
chain_sequence="EKPYGCIDCGKAFSQKSCLVAHQR [ZNF649]" measured_quantity="protein stability index" experimental_result=2.99
chain_sequence="NKDGIGEICLWGRHIFMGYLESET [ACSBG2]" measured_quantity="protein stability index" experimental_result=2.02
chain_sequence="ATVVMMTKLEERSRVKCDQYWPSR [PTPRD]" measured_quantity="protein stability index" experimental_result=2.17
chain_sequence="LHELSSRVEASHLTTSQERELGIR [FBF1]" measured_quantity="protein stability index" experimental_result=4.36
chain_sequence="LASLVSQGMIQLALSGASQPGPSG [RETREG3]" measured_quantity="protein stability index" experimental_result=1.99
chain_sequence="SDNSGQVSPPESPTVTTSWQSESL [BCL2L13]" measured_quantity="protein stability index" experimental_result=5.02
chain_sequence="VKDLIKKLLVVDRTRRLGNMKNGA [PRKX]" measured_quantity="protein stability index" experimental_result=2.33
chain_sequence="DRKVLLKSDSPTGDVLLDETLKHI [GOLPH3L]" measured_quantity="protein stability index" experimental_result=4.54
chain_sequence="WQLLLFLCATHFGEPLEKVASVGN [KISS1]" measured_quantity="protein stability index" experimental_result=2.29
chain_sequence="MTMIVSLAAVAWVGQQVHNLLLTY [ARL6IP1]" measured_quantity="protein stability index" experimental_result=3.25
chain_sequence="KVLGELNILPNTQKVTCFYQPAPY [TENT5D]" measured_quantity="protein stability index" experimental_result=2.16
chain_sequence="MKTFVSPEAISPDLVKKIRDFHRK [TRIM15]" measured_quantity="protein stability index" experimental_result=3.07
chain_sequence="VPVKKQKTRTVFSSTQLCVLNDRF [NANOGP8]" measured_quantity="protein stability index" experimental_result=2.77
chain_sequence="ARFVSSGSGGGYGGGMRVCGFGGG [KRT15]" measured_quantity="protein stability index" experimental_result=2.74
chain_sequence="TYRIRIEMSKDALPEKACQLDSRY [FBXO3]" measured_quantity="protein stability index" experimental_result=2.57
chain_sequence="YAILDEKKSELLQRITQEQEKKLS [TRIM63]" measured_quantity="protein stability index" experimental_result=4.52
chain_sequence="DVNKTDHSQRTALHLAAQKALRTI [INVS]" measured_quantity="protein stability index" experimental_result=3.44
chain_sequence="PAVATLCDLFDREIVVTISWAKSI [ESRRA]" measured_quantity="protein stability index" experimental_result=3.36
chain_sequence="GHVEMVNLLLAKGANINAFDKKDR [ANKRD44]" measured_quantity="protein stability index" experimental_result=3.38

---

Experiment: protein stability index of a GFP-peptide fusion (GPS, HEK-293T) (PSI 1-6); higher = more stable
Settings: treatment: DMSO; c terminus: a fixed tail appended
Parameter threshold = 3. Response is Yes when protein stability index meets or exceeds it, else No.

chain_sequence="HGPISEVLLIKDRTSKSRGFAFIT [RBMY1A1]" label_value=No
chain_sequence="RRASICCTQLGSLSALKHAVLGLY [SCARA5]" label_value=No
chain_sequence="TSFALERNLRTQQEIEDKMKGFSF [C8orf76]" label_value=Yes
chain_sequence="IQMVNESLGYVRSQFLKLKTSVEK [CD207]" label_value=Yes
chain_sequence="WGVCEPQREEVEERMWAAIQSWDI [ZER1]" label_value=Yes
chain_sequence="LTLSAGDLGGSIYANLALSGLIEI [SLC22A15]" label_value=No
chain_sequence="TMDNKKGRRYEAVKWMVVFAIGVC [CLCN6]" label_value=No
chain_sequence="IVGWRCRVGQWVRMENVTVLGEDV [GMPPB]" label_value=No
chain_sequence="LHCYRDRPHEVLLCSDLVKAYQRC [CHCHD6]" label_value=No
chain_sequence="ACCEFLESQLDPSNCLGIRDFAET [KLHL12]" label_value=No
chain_sequence="SHLSNGLDPVAETAIRQLTEPSGR [C2CD2L]" label_value=Yes
chain_sequence="NEFLCTLQKKLDNLQCLYCEKTFR [ZNF277]" label_value=No
chain_sequence="EPNTFSPANVDASVMYRKWKESKG [CDC34]" label_value=Yes
chain_sequence="GSEMGLSSHLQSSKAGPTRIFTSN [KLHL13]" label_value=Yes
chain_sequence="ELHQVAERVEALGQFVMKTRRTLK [GNB5]" label_value=No
chain_sequence="SEADSEAGELRKPTQEEWRQVVDI [PPEF2]" label_value=Yes
chain_sequence="LEPVKKSRLQLLGATCMFVASKMK [CCND1]" label_value=No
chain_sequence="SEGTNLNAPNSLGVSALCAICGDR [HNF4A]" label_value=Yes
chain_sequence="RIATETDQIGSEIIEELGEQRDQL [VTI1B]" label_value=Yes
chain_sequence="ENLAHHLEIDSGVITLDPQTASRS [TRIM15]" label_value=Yes
chain_sequence="AGSVVAAVQGLNLRSPNNFLSYYR [CCND1]" label_value=No
chain_sequence="HNLVVACEIQVRTLASAGGPDNLV [ADD1]" label_value=No
chain_sequence="DDSGKDKKKKTKKIKEKYIDQEEL [HSP90AB1]" label_value=Yes
chain_sequence="WDIGRGKLYHQSKGPGAPQYPAGT [SPSB2]" label_value=Yes
chain_sequence="GTLTPRMTTDFDLSLDNSPLLQSI [TRIM9]" label_value=Yes

---

Assay: protein stability index of a GFP-peptide fusion (GPS, HEK-293T) (PSI 1-6); higher = more stable
Conditions: treatment: MLN4924 1 uM, 8 h; c terminus: a fixed tail appended
Quick rule: protein stability index of at least 3 means MET, below that means NOT MET.

chain_sequence="YNPHPGFPELGYSYGGGSASSQHS [DVL3]" label_value=MET
chain_sequence="IQMVNESLGYVRSQFLKLKTSVEK [CD207]" label_value=MET
chain_sequence="SSHEPCSATCTTGVMSAYAMCVRY [ADAMTSL2]" label_value="NOT MET"
chain_sequence="MDEAVGDLKQALPCVAESPTVHVE [TRIP13]" label_value=MET
chain_sequence="VRLDRVRGGRQKYKRRIDAENSPY [ESRRG]" label_value=MET
chain_sequence="SSTSYRRTFGPPPSLSPGAFSYSS [PRPH]" label_value=MET

---

Assay: protein stability index of a GFP-peptide fusion (GPS, HEK-293T) (PSI 1-6); higher = more stable
Conditions: treatment: MLN4924 1 uM, 8 h; c terminus: a fixed tail appended
Returns one of 1 (yes) or 0 (no); 1 (yes) when protein stability index is >= 4.

chain_sequence="PSRQYATLDVYNPFETREPPPAYE [SCAMP3]" label_value="1 (yes)"
chain_sequence="VFFLFPHSVLVDDDGIKVVKVTFN [TMEM106C]" label_value="0 (no)"
chain_sequence="RLQRKLVEPKHCFTSPDYQQQCHE [SDE2]" label_value="0 (no)"
chain_sequence="EPKLHTPMYFFLGNLSVLDVGCIS [OR3A1]" label_value="0 (no)"
chain_sequence="LTDDKQVLNTQGQKTSGQHMIQGA [DLC1]" label_value="1 (yes)"
chain_sequence="IPVLMALSWFILHARYRVIHFIAV [SLC35F2]" label_value="0 (no)"
chain_sequence="SSSCAVHDLIFWRDVKKTGFVFGT [RTN3]" label_value="0 (no)"
chain_sequence="HRLMTDARRRVCHTEDFQKEEGTV [CPXM2]" label_value="1 (yes)"
chain_sequence="PGQEKGSALEGRADTTTGSAAGPP [EHMT1]" label_value="1 (yes)"
chain_sequence="YFISTVKRSWTSAQNACSEHGATL [CD69]" label_value="0 (no)"
chain_sequence="VILEVSLEGSHDTANCEACTLGIC [RTP4]" label_value="0 (no)"
chain_sequence="LDQKKQDPRVQDFLQRCLESPFSR [NET1]" label_value="0 (no)"
chain_sequence="SNSCPAELPNIKREISETEAKALL [TFE3]" label_value="1 (yes)"
chain_sequence="INDNAPTFQSSVLRVGIPENAPIG [PCDHGC5]" label_value="1 (yes)"
chain_sequence="LKTKDGKLPFCAMGVSSVIHPKNP [CPOX]" label_value="0 (no)"
chain_sequence="ELYVFGGVRSREDAQGSEMVTCKS [GAN]" label_value="1 (yes)"
chain_sequence="QSSLLETLYRNRSNLETIFRIIDS [PPEF2]" label_value="0 (no)"
chain_sequence="KPPKPPDKPLMPYMRYSRKVWDQV [SMARCE1]" label_value="0 (no)"
chain_sequence="PAHRFVLAAGSAVFDAMFNGGMAT [BTBD1]" label_value="0 (no)"
chain_sequence="YLKNLPLLSKYCGYREDNIPQLED [TPH1]" label_value="0 (no)"
chain_sequence="REIALAKKHGTQNKRAALQALKRK [CHMP4C]" label_value="1 (yes)"
chain_sequence="IDNSSEIEDEDQILENSSQKENVF [FAN1]" label_value="1 (yes)"
chain_sequence="QMNLLQKYSLLKLTALLEKYTPSN [DLC1]" label_value="0 (no)"
chain_sequence="DSAQVARLWGIRKNRPAMNYDKLS [SPDEF]" label_value="0 (no)"
chain_sequence="KASLWQFLSSEKQICGTHRQTKKM [TRIM43]" label_value="0 (no)"
